Measured Kd, listed per entry for reference.
- Study system: T1, Cynomolgus MCSP D3 (cynomolgus, UniProt Q6UVK1 1582-2224 (human entry), limits assumed)
- T1 construct: Soluble analyte in SPR
- T1 chain: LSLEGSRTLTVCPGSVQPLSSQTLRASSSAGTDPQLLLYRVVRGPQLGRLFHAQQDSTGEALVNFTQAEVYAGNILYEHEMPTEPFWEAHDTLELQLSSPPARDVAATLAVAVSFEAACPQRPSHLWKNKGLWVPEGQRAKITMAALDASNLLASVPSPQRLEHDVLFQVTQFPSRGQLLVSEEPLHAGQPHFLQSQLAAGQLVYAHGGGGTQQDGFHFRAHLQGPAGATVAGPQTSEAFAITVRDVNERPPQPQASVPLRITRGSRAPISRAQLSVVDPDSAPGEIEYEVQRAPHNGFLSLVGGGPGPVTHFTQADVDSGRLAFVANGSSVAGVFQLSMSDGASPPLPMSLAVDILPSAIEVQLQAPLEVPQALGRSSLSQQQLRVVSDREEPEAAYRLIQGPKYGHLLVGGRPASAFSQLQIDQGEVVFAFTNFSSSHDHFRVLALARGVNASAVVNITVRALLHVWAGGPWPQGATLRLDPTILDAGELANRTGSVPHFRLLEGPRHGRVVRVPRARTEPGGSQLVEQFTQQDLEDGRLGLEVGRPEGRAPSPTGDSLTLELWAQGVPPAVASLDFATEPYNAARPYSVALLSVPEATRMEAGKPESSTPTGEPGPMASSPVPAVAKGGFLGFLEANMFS
- Protocol: SPR Biacore T200, 25 C, IgG captured on anti-human Fab, MCSP D3 as analyte, 1:1 Langmuir fit
Attribute measured: Kd (nM)

Binder: M4-3 (C1) ML2 (C5) (antibody, human IgG1, V domains shown) VH: QVQLQESGPGLVKPSQTLSLTCTVSGGSITSGYYWNWIRQHPGKGLEWIGYITFDGSNNYNPSLKSRVTISRDTSKNQFSLKLSSVTAADTAVYYCADFDYWGQGTLVTVSS VL: DIQMTQSPSSLSASVGDRVTITCRASRGIREYLNWYQQKPGKAPKLLIYYTGSLHSGVPSRFSGSGSGTDFTLTISSLQPEDFATYYCQQYSELPWTFGQGTKVEIK
Unit label: nM
Value observed: 0.12

Binder: M4-3 ML2 (C5/G3) (antibody, human IgG1, V domains shown) VH: QVQLQESGPGLVKPSQTLSLTCTVSGGSITSGYYWNWIRQHPGKGLEWIGYITYDGSNNYNPSLKSRVTISRDTSKNQFSLKLSSVTAADTAVYYCADFDYWGQGTLVTVSS VL: DIQMTQSPSSLSASVGDRVTITCRASRGIREYLNWYQQKPGKAPKLLIYYTGSLHSGVPSRFSGSGSGTDFTLTISSLQPEDFATYYCQQYSALPWTFGQGTKVEIK
Unit label: nM
Value observed: 12.8

Binder: M4-3 (C1) ML2 (G3) (antibody, human IgG1, kappa, V domains shown) VH: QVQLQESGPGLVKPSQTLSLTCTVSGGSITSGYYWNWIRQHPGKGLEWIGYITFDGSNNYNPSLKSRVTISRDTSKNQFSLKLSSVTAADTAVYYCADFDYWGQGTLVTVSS VL: DIQMTQSPSSLSASVGDRVTITCRASQGIRNYLNWYQQKPGKAPKLLIYYTSSLHSGVPSRFSGSGSGTDYTLTISSLQPEDFATYYCQQYSALPWTFGQGTKVEIKR
Unit label: nM
Value observed: 1.3

Binder: M4-3 (A7) ML2 (E10) (antibody, human IgG1, V domains shown) VH: QVQLQESGPGLVKPSQTLSLTCTVSGGSITDGYYWNWIRQHPGKGLEWIGYITFDGRNNYNPSLKSRVTISRDTSKNQFSLKLSSVTAADTAVYYCADFDYWGQGTLVTVSS VL: DIQMTQSPSSLSASVGDRVTITCRASYGIRGYLNWYQQKPGKAPKLLIYYTSSLHSGVPSRFSGSGSGTDFTLTISSLQPEDFATYHCQQYSKLPWTFGQGTKVEIK
Unit label: nM
Value observed: 8.5

Binder: M4-3 (B7) ML2 (antibody, human IgG1, V domains shown) VH: QVQLQESGPGLVKPSQTLSLTCTVSGGSITSGYYWNWIRQHPGKGLEWIGYITFDGINNYNPSLKSRVTISRDTSKNQFSLKLSSVTAADTAVYYCADFDYWGQGTLVTVSS VL: DIQMTQSPSSLSASVGDRVTITCRASQGIRNYLNWYQQKPGKAPKLLIYYTSSLHSGVPSRFSGSGSGTDFTLTISSLQPEDFATYYCQQYSKLPWTFGQGTKVEIK
Unit label: nM
Value observed: 9.9
